Reported MIC is given for each of the following compounds.
- Test system: Escherichia coli
- Assay protocol: Antibacterial activity against Escherichia coli clinical isolate after 24 hrs by microdilution method
- Format: functional
Measurement name: MIC (µg/mL)

# Entry smiles, Measurement name, Observed
rows = [
    ("CC(C)(C)c1cc(C(=O)Nc2cccc(C(=O)NCCNC(=N)N)c2)cc(C(C)(C)C)c1.Cl", "MIC", 16),
    ("CC(C)(C)c1cc(NC(=O)c2ccc(C(=O)NCCCNC(=N)N)cc2)cc(C(C)(C)C)c1.Cl", "MIC", 8),
    ("CC(C)(C)c1cc(NC(=O)c2ccc(C(=O)NCCNC(=N)N)cc2)cc(C(C)(C)C)c1.Cl", "MIC", 8),
    ("CC(C)(C)c1cc(C(=O)Nc2ccc(C(=O)NCCN)cc2)cc(C(C)(C)C)c1.Cl", "MIC", 8),
]

====

- System: Escherichia coli
- Assay protocol: Antibacterial activity against Escherichia coli clinical isolate after 24 hrs by microdilution method
- Format: functional
Reported MIC is given for each of the following compounds.
Measurement name: MIC (µg/mL)

# Entry smiles, Tested on, Observed
rows = [
    ("CC(C)(C)c1cc(C(=O)Nc2cc3ccccc3cc2C(=O)NCCN)cc(C(C)(C)C)c1.Cl", "Escherichia coli", 8),
    ("CC(C)(C)c1cc(C(=O)Nc2ccc(C(=O)NCCNC(=N)N)cc2)cc(C(C)(C)C)c1.Cl", "Escherichia coli", 8),
    ("CC(C)(C)c1cc(C(=O)Nc2ccccc2C(=O)NCCN)cc(C(C)(C)C)c1.Cl", "Escherichia coli", 16),
    ("CC(C)(C)c1cc(C(=O)Nc2ccccc2C(=O)NCCNC(=N)N)cc(C(C)(C)C)c1.Cl", "Escherichia coli", 8),
    ("CC(C)(C)c1cc(C(=O)Nc2cc3ccccc3cc2C(=O)NCCNC(=N)N)cc(C(C)(C)C)c1.Cl", "Escherichia coli", 16),
]

====

- Test system: Enterococcus sp.
- Assay protocol: Antibacterial activity against Enterococcus sp. clinical isolate after 24 hrs by microdilution method
- Type: functional

# Entry smiles, MIC, µg/mL
data = [
    ("CC(C)(C)c1cc(NC(=O)c2ccc(C(=O)NCCCNC(=N)N)cc2)cc(C(C)(C)C)c1.Cl", 8),
    ("CC(C)(C)c1cc(NC(=O)c2ccc(C(=O)NCCNC(=N)N)cc2)cc(C(C)(C)C)c1.Cl", 8),
    ("CC(C)(C)c1cc(C(=O)Nc2ccc(C(=O)NCCN)cc2)cc(C(C)(C)C)c1.Cl", 16),
    ("CC(C)(C)c1cc(C(=O)Nc2cccc(C(=O)NCCNC(=N)N)c2)cc(C(C)(C)C)c1.Cl", 16),
]

====

- Assay protocol: Selectivity index, ratio of hemolytic EC50 for human RBC to MIC for Staphylococcus aureus ATCC 9144
Reported Selectivity Index is given for each of the following compounds.

# Entry smiles, Relational operator, Selectivity Index
measured = [
    ("CC(C)(C)c1cc(NC(=O)c2ccc(C(=O)NCCNC(=N)N)cc2)cc(C(C)(C)C)c1.Cl", "=", 11),
    ("CN(C)CCNC(=O)c1ccc(NC(=O)c2cc(C(C)(C)C)cc(C(C)(C)C)c2)cc1.Cl", ">", 1),
    ("CC(C)(C)c1cc(C(=O)Nc2cccc(C(=O)NCCCNC(=N)N)c2)cc(C(C)(C)C)c1.Cl", "=", 14.8),
]
